# measured_on: Human plasma kallikrein (Homo sapiens (Human))
# test: In vitro plasma kallikrein inhibition assay (chromogenic substrate D-Pro-Phe-Arg-pNa, absorbance at 405 nm, IC50 determination)
# Format: biochemical
# experimental_parameters: read-out: KLKB1 pIC50 (converted)
metric_name: IC50 (nM)
Return type: number; implicit unit nM.

# get_value(readout='IC50', item= Cc1nc(N)cc(C2CC2)c1CNC(=O)c1ccc2c(c1)C1OC2c2ccc(-c3ccc(F)cc3F)cc21 (racemic) )
11

Same thing, different compound: Cc1cc(N)nc(C)c1CNC(=O)c1ccc2c(c1)[C@@H]1O[C@H]2c2cc(Oc3cccc(F)c3)ccc21 (single isomer, unassigned)
75.9

Same thing, different compound: Cc1cc(N)nc(C)c1CNC(=O)c1ccc2c(c1)C1OC2c2ccc(-c3ncc(F)cc3F)cc21 (racemic)
45.7

* * *

Overview of reported IC50 across a group of compounds:
# measured_on: Human plasma kallikrein (Homo sapiens (Human))
# test: In vitro plasma kallikrein inhibition assay (chromogenic substrate D-Pro-Phe-Arg-pNa, absorbance at 405 nm, IC50 determination)
# Assay type: biochemical
# experimental_parameters: read-out: KLKB1 pIC50 (converted)
Return type: number; implicit unit µM.

Cc1cc(N)nc(C)c1CNC(=O)c1ccc2c(c1)[C@@H]1O[C@H]2c2ccc(Cc3ccccc3)cc21 (single isomer, unassigned) [Example 254]    0.0191

# get_value(readout='IC50', item= N=C(N)c1cc(F)c(CNC(=O)c2ccc3c(c2)[C@@H]2O[C@H]3c3ccc(-n4cccn4)cc32)c(F)c1 (single isomer, unassigned) [Example 286] )
0.00245

Same thing, different compound: Cc1cc(N)nc(C)c1CNC(=O)c1ccc2c(c1)[C@@H]1O[C@H]2c2ccc(Cn3cc(F)cn3)cc21 (single isomer, unassigned) [Example 178]
0.001

Same thing, different compound: O=C(NC1CCCNCC1)c1ccc2c(c1)[C@@H]1O[C@H]2c2ccc(-c3ccc(F)cc3F)cc21 (single isomer, unassigned) [Example 343]
100

Same thing, different compound: Cc1cc(N)nc(C)c1CNC(=O)c1ccc2c(c1)[C@@H]1O[C@H]2c2ccc(-c3cccc[n+]3[O-])cc21 (single isomer, unassigned) [Example 195]
1.05

Same thing, different compound: N#Cc1cc(NC(=N)c2ccc3c(c2)[C@@H]2O[C@H]3c3ccc(-c4ccc(F)cc4F)cc32)ccc1F (single isomer, unassigned) [Example 283]
100

* * *

# measured_on: Human plasma kallikrein (Homo sapiens (Human), UniProt P03952)
# Sequence (P03952 391-638): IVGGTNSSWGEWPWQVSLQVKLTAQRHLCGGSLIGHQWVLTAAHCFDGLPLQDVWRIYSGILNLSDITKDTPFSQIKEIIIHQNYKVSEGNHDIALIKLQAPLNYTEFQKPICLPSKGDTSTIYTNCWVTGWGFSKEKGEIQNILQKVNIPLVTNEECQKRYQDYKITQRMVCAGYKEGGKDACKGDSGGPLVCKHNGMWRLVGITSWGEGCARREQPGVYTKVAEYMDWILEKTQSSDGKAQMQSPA
# Sequence (P03952 20-390 partner): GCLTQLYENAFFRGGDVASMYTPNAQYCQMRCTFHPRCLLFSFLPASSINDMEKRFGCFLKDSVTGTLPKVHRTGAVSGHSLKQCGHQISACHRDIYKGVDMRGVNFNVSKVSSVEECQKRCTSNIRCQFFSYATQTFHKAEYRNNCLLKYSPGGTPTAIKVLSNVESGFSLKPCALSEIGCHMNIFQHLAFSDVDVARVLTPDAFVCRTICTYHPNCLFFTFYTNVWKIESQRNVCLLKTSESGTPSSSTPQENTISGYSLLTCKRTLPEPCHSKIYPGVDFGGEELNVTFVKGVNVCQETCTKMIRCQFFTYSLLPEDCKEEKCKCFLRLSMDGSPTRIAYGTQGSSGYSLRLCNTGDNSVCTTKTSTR
# test: In vitro plasma kallikrein inhibition assay (chromogenic substrate D-Pro-Phe-Arg-pNa, absorbance at 405 nm, IC50 determination)
# Assay type: biochemical
# experimental_parameters: read-out: KLKB1 pIC50 (converted)
metric_name: log10 of IC50 (log10 of the value in nM)
Form field - Quantity: IC50; Unit: nM; Scale: log10

# get_value(readout='log10 of IC50', item= Cc1cc(N)nc(C)c1CNC(=O)c1ccc2c(c1)C1OC2c2ccc(-c3ccc4[nH]cnc4c3)cc21 (racemic) )
2.45

Same thing, different molecule: Cc1cc(N)nc(C)c1CNC(=O)c1ccc2c(c1)[C@@H]1O[C@H]2c2ccc(NC(=O)c3ccccc3)cc21 (single isomer, unassigned)
4.00

Same thing, different molecule: Cc1cc2c(c(C)c1CNC(=O)c1ccc3c(c1)C1OC3c3ccc(-c4c(C)cccc4F)cc31)CNC2 (racemic)
4.06

Same thing, different molecule: Cc1cc(C(=N)N)cc(C)c1CNC(=O)c1ccc2c(c1)[C@@H]1O[C@H]2c2ccc(-c3ccc(F)cc3F)cc21 (single isomer, unassigned)
-0.13

Same thing, different molecule: N=C(N)c1ccc(CNC(=O)c2ccc3c(c2)[C@@H]2O[C@H]3c3ccc(-c4ccc(F)cc4)cc32)c(F)c1 (single isomer, unassigned)
0.00

Same thing, different molecule: CCOc1cc(N)nc(C)c1CNC(=O)c1ccc2c(c1)C1OC2c2ccc(Cn3cccn3)cc21 (racemic)
1.04

Same thing, different molecule: CCc1cc2c(cc1CC)C1OC2c2ccc(C(=O)NCc3c(C)cc(N)nc3C)cc21 (racemic)
2.32

Same thing, different molecule: Cc1ccc2c(N)nccc2c1CNC(=O)c1ccc2c(c1)[C@@H]1O[C@H]2c2ccc(-c3ccccc3F)cc21 (single isomer, unassigned)
1.49

Same thing, different molecule: Nc1cc(CNC(=O)c2ccc3c(c2)C2OC3c3ccc(-c4ccc(F)cc4F)cc32)ccn1 (racemic)
4.30

Same thing, different molecule: N=C(N)c1ccc(CNC(=O)c2ccc3c(c2)[C@H]2O[C@@H]3c3cc(C4CC4)c(C4CC4)cc32)cc1 (single isomer, unassigned)
2.00

Same thing, different molecule: CCOc1cc(N)nc(C)c1CNC(=O)c1ccc2c(c1)C1OC2c2ccc(Cn3cc(C)cn3)cc21 (racemic)
0.30

Same thing, different molecule: Cc1cc(N)nc(C)c1CNC(=O)c1ccc2c(c1)[C@@H]1O[C@H]2c2ccc(C(=O)c3ccccc3)cc21 (single isomer, unassigned)
1.08

Same thing, different molecule: N=C(N)c1ccc(CNC(=O)c2ccc3c(c2)[C@@H]2O[C@H]3c3ccc(-c4ccc(Cl)s4)cc32)cc1 (single isomer, unassigned)
0.30

* * *

# measured_on: Human plasma kallikrein (Homo sapiens (Human), UniProt P03952)
# test: In vitro plasma kallikrein inhibition assay (chromogenic substrate D-Pro-Phe-Arg-pNa, absorbance at 405 nm, IC50 determination)
# Format: biochemical
# experimental_parameters: read-out: KLKB1 pIC50 (converted)
metric_name: log10 IC50 (log10 of the value in nM)
Form field - Quantity: IC50; Unit: nM; Scale: log10

CC(=O)N1C2c3ccc(C(=O)NCc4c(C)cc(N)nc4C)cc3C1c1cc(-c3ccc(F)cc3F)ccc12 (racemic)    3.54
CCc1cc(N)nc(C)c1CNC(=O)c1ccc2c(c1)C1OC2c2ccc(-c3c(C)cc(F)cc3F)cc21 (racemic)    3.21
N=C(N)c1ccc(CNC(=O)c2ccc3c(c2)[C@@H]2O[C@H]3c3ccccc32)cc1 (single isomer, unassigned)    2.51

# get_value(readout='log10 IC50', item= Cc1ccc(-c2ccc3c(c2)C2OC3c3ccc(C(=O)NCc4c(F)cc5c(c4C)CNC5)cc32)c(C#N)c1 (racemic) )
2.46

Same thing, different molecule: Cc1cc(N)nc(C)c1CNC(=O)c1ccc2c(c1)[C@@H]1O[C@H]2c2ccc(Oc3cccc(F)c3)cc21 (single isomer, unassigned)
2.02

Same thing, different molecule: Cc1cc(N)nc(C)c1CNC(=O)c1ccc2c(c1)C1OC2c2cc(C3CC3)c(C3CC3)cc21 (racemic)
1.51

Same thing, different molecule: Nc1nccc2ccc(CNC(=O)c3ccc4c(c3)C3OC4c4ccc(-c5ccc(F)cc5F)cc43)cc12 (racemic)
3.57

Same thing, different molecule: N=C(N)c1ccc(CNC(=O)c2ccc3c(c2)[C@@H]2O[C@H]3c3ccc(N4CCCC4)cc32)cc1 (single isomer, unassigned)
0.30

Same thing, different molecule: N=C(N)c1cc(F)c(CNC(=O)c2ccc3c(c2)[C@@H]2O[C@H]3c3ccc(CCC(F)(F)F)cc32)c(F)c1 (single isomer, unassigned)
0.00

Same thing, different molecule: Cc1cc(N)nc(C)c1CNC(=O)c1ccc2c(c1)C1OC2c2ccc(Oc3cccnc3)cc21 (racemic)
3.80

Same thing, different molecule: CC(C)(O)c1ccc2c(c1)[C@H]1O[C@@H]2c2ccc(C(=O)NCc3ccc(C(=N)N)cc3)cc21 (single isomer, unassigned)
1.55

Same thing, different molecule: N=C(N)c1ccc(CNC(=O)c2ccc3c(c2)[C@@H]2O[C@H]3c3ccc(C4CC4)cc32)cc1 (single isomer, unassigned)
0.30

Same thing, different molecule: CC(C)(F)c1ccc2c(c1)[C@H]1O[C@@H]2c2ccc(C(=O)NCc3ccc(C(=N)N)cc3)cc21 (single isomer, unassigned)
0.80

* * *

# measured_on: Human plasma kallikrein (Homo sapiens (Human), UniProt P03952)
# test: In vitro plasma kallikrein inhibition assay (chromogenic substrate D-Pro-Phe-Arg-pNa, absorbance at 405 nm, IC50 determination)
# Assay type: biochemical
# experimental_parameters: read-out: KLKB1 pIC50 (converted)
With a cut-off of 200 nM, any IC50 strictly below it is called 1; any IC50 meeting it or above is called 0.

Cc1ccncc1-c1ccc2c(c1)[C@H]1O[C@@H]2c2ccc(C(=O)NCc3c(C)cc(N)nc3C)cc21 (single isomer, unassigned) [Example 215]    1

Does the reported IC50 of Cc1cc(N)nc(C)c1CNC(=O)c1ccc2c(c1)[C@@H]1O[C@H]2c2ccc(Oc3ccn(C)n3)cc21 (single isomer, unassigned) [Example 185] stay below 200 nM?
0

Same thing, different compound: COc1ccc(Cl)c(CNC(=N)c2ccc3c(c2)[C@@H]2O[C@H]3c3ccc(-c4ccc(F)cc4F)cc32)c1F (single isomer, unassigned) [Example 264]
0

Same thing, different compound: Cc1cc(N)nc(C)c1CNC(=O)c1ccc2c(c1)[C@@H]1O[C@H]2c2ccc(C(=O)N3CC4CCC(C3)O4)cc21 (single isomer, unassigned) [Example 193]
0
